Task for the reader: assign each of the following binders its reported koff.
Target: T1, Pfs230 D1 (aa 587–731) (Plasmodium falciparum, UniProt P68874 587-731)
T1 chain: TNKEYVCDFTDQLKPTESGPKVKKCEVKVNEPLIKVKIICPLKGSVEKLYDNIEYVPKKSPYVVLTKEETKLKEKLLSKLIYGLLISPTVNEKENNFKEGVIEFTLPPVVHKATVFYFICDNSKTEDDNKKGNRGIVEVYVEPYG
Experiment: BLI
Answers are plain numbers, in s⁻¹.

nanobody F5 (VHH) VHH: QVQLQESGGGLVQPGGSLRLSCAASGFTLDRYAIGWFRQAPGKEREGVSCISSSDGSTYYADSVKGRFTISRDNAKNTVYLQMNSLKPEDTAVYYCARDHGPCTVLADILYDYGMDYWGKGTQVTVSS : 0.000316
nanobody D11 (VHH) VHH: QVQLQESGGGLVQAGSSLRLSCAASGRTFSSYAMGWFRQAPGKEREFVAAIGWSGGTYYTDSVEGRFTISRDNAENTVYLQMNSLKPEDTAVYYCAAKASGSSWSERGYDYWGQGTQVTVSS : 0.00256
nanobody B4 (VHH) VHH: QVQLQESGGGLVQPGGSLRLSCAASGFTLDYYGIGWFRQAPGKEREGVSCISSSDGSTYYADSVKGRFTISRDNAKNTVYLQMNSLKPEDTAVYYCAADLTGIGCTTAQAMGVIGDFGDFGSWGQGTQVTVSS : 0.00138
nanobody A10 (VHH) VHH: QVQLQESGGGLVQAGSSLRLSCAASGGTFSNYAMGWFRQAPGKEREFVAAIGWSGGTYYTDSVEGRFTISRDNAKNTVYLQMNSLKPEDTAVYYCAAKRSGSSWSERGYDYWGQGTQVTVSS : 0.000788
nanobody E11 (VHH) VHH: QVQLQESGGGLVQPGGSLRLSCAASGFTSDYYGIGWFRQAPGKEREGVACISSSDGSTYYADSVKGRSTISRDNAKNTVYLQMNSLKPEDTAVYYCAADLSGIGCTTAQAMDVIGDFGDFGSWGQGTQVTVSS : 0.000539
nanobody F10 (VHH) VHH: QVQLQESGGGLVQAGGSLRLSCAASGRTFSDYFMGWFRQAPGKEREFVAAVSWSGGSTYYADSVKGRFTISRDNAKNTVFLQMNSLKPEDTAVYYCAGGGSYYPMSPYDGMDYWGKGTQVTVSS : 4.8e-05
nanobody D6 (VHH) VHH: QVQLQESGGGLVQAGDSLRLSCAASGRTFSSYFMGWFRQAPGKEREFVAAISWSGGSTYYADSVKGRFTISRDNVKNTVYLQMNSLEPEDAAVYYCAGGGSYYPMSPRNGMDYWGKGTQVTVSS : 0.000158
nanobody G2 (VHH) VHH: QVQLQESGGGLVQAGGSLRLSCAASGRTFSNYFMGWFRQAPGKEREFVAAVSWSGGSTYYADSVKGRLTISRDNAKNTVYLQMNSLKPEDTAVYYCAAGERYFPMEPRRGYDYWGQGTQVTVSS : 0.000179

// input: 3 binders below; output: koff for each
1. nanobody G5 (VHH) VHH: QVQLQESGGGLVQAGGSLRLSCAASGRTFNDYAMYWFRQAPGKEREFVADITWSGSSTYYADSVKGRFTISRDNAKNTVFLQMNSLKPEDTALYYCAADSRYYGIGIGTPRYWGQGTQVTVSS
2. nanobody E1 (VHH) VHH: QVQLQESGGGLVQPGGSLRLSCAASGRTFSSYFMGWFRQAPGKGRVFVASISWSGGSTYYADSVKGRFTISRDNAENTVYLQMNSLKPEDTAVYYCAAGTRATPLDWASGMDYWGKGTQVTVSS
3. nanobody A11 (VHH) VHH: QVQLQESGGGLVQPGESLRLSCAASGRTSSSYAMGWFRQAPGKEREFVASISWSGGSTYYADSVKGRFTLSRDNAKNTVYLQMNSLKPEDTAVYYCAADGIFYSDYPLSVDDFHSWGQGTQVTVSS

Result:
0.000635
0.00019
0.00039

Task: Any idea what its koff is? The binder is nanobody D1 (VHH) VHH: QVQLQESGGGLVQAGDSLRLSCTASGRTFSNHAMGWFRQAPGKEREIVAVIFGTGRNSWYVDSVKGRFTISRDNAKNTVALQMNRLKPEDTAVYYCASGRTWYSGSSMAEYDYWGQGTQVTVSS
Result: 3.72e-05

src = paper PMC9788556
